target: KDR (human, UniProt P35968 20-1356); assay: cell-based or functional assay
Sequence (P35968 20-1356): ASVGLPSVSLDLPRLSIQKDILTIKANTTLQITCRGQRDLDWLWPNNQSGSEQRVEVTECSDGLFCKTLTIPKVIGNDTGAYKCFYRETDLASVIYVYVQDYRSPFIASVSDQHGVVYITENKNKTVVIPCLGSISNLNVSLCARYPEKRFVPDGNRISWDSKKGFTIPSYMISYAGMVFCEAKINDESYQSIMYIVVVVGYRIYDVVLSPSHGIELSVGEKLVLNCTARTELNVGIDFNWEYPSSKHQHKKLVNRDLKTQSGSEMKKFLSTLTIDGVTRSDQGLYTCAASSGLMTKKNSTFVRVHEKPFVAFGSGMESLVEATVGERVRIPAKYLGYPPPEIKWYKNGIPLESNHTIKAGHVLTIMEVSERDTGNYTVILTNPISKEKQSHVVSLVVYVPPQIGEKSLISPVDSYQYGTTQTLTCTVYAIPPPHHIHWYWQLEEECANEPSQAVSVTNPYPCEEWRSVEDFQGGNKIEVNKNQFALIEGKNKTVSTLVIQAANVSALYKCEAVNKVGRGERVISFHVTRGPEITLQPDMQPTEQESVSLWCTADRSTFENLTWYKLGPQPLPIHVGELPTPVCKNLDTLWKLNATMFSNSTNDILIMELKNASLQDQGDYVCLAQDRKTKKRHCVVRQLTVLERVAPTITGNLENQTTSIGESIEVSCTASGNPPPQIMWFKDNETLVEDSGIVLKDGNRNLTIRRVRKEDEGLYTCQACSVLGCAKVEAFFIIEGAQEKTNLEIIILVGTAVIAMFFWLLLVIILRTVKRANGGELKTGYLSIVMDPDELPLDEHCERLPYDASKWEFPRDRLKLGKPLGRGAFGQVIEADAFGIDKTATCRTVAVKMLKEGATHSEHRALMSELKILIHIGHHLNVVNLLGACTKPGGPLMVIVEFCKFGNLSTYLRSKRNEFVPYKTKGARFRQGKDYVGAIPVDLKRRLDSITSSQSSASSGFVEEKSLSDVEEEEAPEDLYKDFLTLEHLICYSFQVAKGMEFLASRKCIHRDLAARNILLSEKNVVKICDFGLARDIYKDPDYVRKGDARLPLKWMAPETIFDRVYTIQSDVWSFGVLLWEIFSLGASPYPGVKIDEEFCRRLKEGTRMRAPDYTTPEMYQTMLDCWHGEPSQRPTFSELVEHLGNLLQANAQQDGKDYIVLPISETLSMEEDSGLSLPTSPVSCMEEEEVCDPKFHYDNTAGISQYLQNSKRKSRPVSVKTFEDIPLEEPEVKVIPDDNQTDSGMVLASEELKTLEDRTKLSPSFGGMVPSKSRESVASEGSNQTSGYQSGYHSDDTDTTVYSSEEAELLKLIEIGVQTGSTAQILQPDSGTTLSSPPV
endpointLabel: Activity at 133 nM Antibody Concentration (% Survival Inhibition), Average (%)

binder: 29A3 (antibody, V domains shown) VH: QVQLQESGPGLVKPSETLSLTCTVSGGSISSYFWSWIRQPAGKGLEWIGRIYFSGRTNYNPSLKSRVTMSVETSKNQFSLKLNSVTAADTAVYYCARDGGWNYDVAFDYWGQGTLVTVSS VL: QAVLTQPSSLSASPGASASLTCTLRSGINVGTYRIYWYQQKPGSPPQYLLRYKSDSDQLQGSGVPSRFSGSKDASANAGILLISGLQSEDEADYYCMVWHSNTWVFGGGTKLTVL
assayValue: -111

binder: 29H3 (antibody, V domains shown) VH: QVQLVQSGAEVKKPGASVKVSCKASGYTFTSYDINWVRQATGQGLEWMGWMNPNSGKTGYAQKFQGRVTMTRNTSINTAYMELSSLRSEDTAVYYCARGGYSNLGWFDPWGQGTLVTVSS VL: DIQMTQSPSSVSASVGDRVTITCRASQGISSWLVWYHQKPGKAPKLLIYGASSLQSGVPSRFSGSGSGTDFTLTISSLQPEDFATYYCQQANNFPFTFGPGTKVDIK
assayValue: -70

binder: 33B1 (antibody, V domains shown) VH: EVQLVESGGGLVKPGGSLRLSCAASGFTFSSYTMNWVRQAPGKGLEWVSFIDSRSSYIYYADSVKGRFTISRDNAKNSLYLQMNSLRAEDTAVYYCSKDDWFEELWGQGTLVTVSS VL: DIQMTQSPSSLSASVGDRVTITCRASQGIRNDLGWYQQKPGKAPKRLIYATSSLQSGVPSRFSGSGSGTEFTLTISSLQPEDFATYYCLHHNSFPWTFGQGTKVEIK
assayValue: 73
